Data credit: PubChem BioAssay

The following compounds are shown together with reported composite z-score values.
Assay: small-molecule microarray binders of probe aLefty2, primary screen, biochemical, biotinylated probe, 635/667 nm fluorescence (AID 1094);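 also: score merges spot fluorescence near 667 nm with spot signal-to-noise ratio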
Settings: higher = more signal
test readout: composite z-score

> print(dat)
                                   compound       test.readout  observed.measurement
1  O=C1NC(=O)C2C1C=CC(C(O)c1ccc(F)cc1)N2Nc1ccc(Cl)cc1Cl (stereo not drawn)  composite z-score                 0.096
2  CN(C)CCCC[C@@H]1NC(=O)[C@H]2C[C@@H](C(=O)NCCCCCCNC(=O)CS)[C@@H](c3cccc(OCCO)c3)N2C1=O  composite z-score                0.0141
3  CCCC=C(CCC)[C@@H](NC(=O)c1ccc(C(=O)OC)cc1)c1ccc(C(=O)OC)cc1  composite z-score                 0.177

###

Biological target: Luciferin 4-monooxygenase (Photinus pyralis) (UniProt P08659)
Sequence (P08659 whole entry, looked up): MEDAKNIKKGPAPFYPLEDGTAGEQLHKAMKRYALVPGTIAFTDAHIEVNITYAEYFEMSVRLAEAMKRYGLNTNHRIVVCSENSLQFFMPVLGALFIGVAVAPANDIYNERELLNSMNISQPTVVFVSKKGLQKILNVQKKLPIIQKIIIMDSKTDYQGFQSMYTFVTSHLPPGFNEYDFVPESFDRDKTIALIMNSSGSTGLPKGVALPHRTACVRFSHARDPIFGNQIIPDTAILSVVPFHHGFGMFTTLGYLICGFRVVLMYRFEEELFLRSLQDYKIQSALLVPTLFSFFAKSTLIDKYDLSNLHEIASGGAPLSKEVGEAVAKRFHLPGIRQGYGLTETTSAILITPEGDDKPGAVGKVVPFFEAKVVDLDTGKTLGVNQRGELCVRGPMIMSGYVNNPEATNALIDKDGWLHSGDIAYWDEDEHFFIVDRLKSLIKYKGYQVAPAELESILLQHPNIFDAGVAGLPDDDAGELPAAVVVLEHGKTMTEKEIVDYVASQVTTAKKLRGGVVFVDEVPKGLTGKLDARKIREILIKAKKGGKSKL
Assay: firefly luciferase enzyme inhibitors, primary screen, biochemical, luminescence, purified enzyme, 2006 set (AID 1141);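 also: cell-free assay with purified firefly luciferase at 100 ng per well in PBS; test concentration not given here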
Conditions: SteadyGlo luminescence, 30 min, higher = more signal, called active from +8 up or from −8 down

compound	z-score
COc1cccc(C)c1NC(=O)O[C@H]1[C@H](OC(=O)Nc2ccccc2-c2ccccc2)[C@@H](OC(=O)Nc2ccccc2-c2ccccc2)[C@@H](OC)O[C@@H]1CO	-0.742
COCCOC(=O)N1C(=O)[C@@]2(c3cc(C#CCNC(N)=O)ccc31)[C@H](C(N)=O)[C@H]1C(=O)O[C@H](c3ccccc3)[C@H](c3ccccc3)N1[C@@H]2c1ccc(O)cc1	-2.19
CC(CO)N1C(=O)[C@@H]2[C@H]3C(=O)OCC=C[C@H]3OC23C=CCN(c2ccc4ccccc4c2)C(=O)[C@@H]13 (stereo partly drawn)	-0.0768
[N-]=[N+]=NCc1ccccc1[C@H]1OC(c2ccc(OCCCO)cc2)=N[C@@]1(CCS(=O)(=O)c1ccccc1)C(=O)O	-6.31
C=CCC(OC(C)=O)[C@@H]1[C@@H](N(Cc2ccc(-c3ccccc3)cc2)C(=O)Cc2ccc(OC)cc2)c2cc(OCCCO)ccc2N1C(=O)c1ccc2ccccc2c1 (stereo partly drawn)	0.161
CCCC=C(CCC)[C@@H](NC(=O)c1ccc(C(=O)OC)cc1)c1ccc(C(=O)OC)cc1	1.3
COCCOC(=O)N1C(=O)[C@@]2(c3cc(C#CC4(O)CCCCCC4)ccc31)[C@H](C(N)=O)[C@H]1C(=O)O[C@H](c3ccccc3)[C@H](c3ccccc3)N1[C@@H]2c1ccc(OCCO)cc1	-1.03
COc1ccc([Si](C)(C)[C@H]2[C@H](CC(=O)N(CCO)Cc3ccccc3)O[C@@]3(C(=O)N(c4ccccc4)c4ccccc43)[C@@H]2C)cc1	-0.429

###

The following compounds are shown together with reported composite z-score values.
Molecular target: Epidermal growth factor receptor (Homo sapiens)
Test: EGFR binders on small-molecule microarrays, primary screen, biochemical, small-molecule microarray, 635 nm fluorescence (AID 1104);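 also: score merges 667 nm emission intensity with spot signal to noise over triplicate slides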
Conditions: EGFR binding, higher = more signal

compound	composite z-score
C=C(C(=O)CC[C@@H](OC(=O)c1ccccc1-c1ccccc1C(=O)O)c1cccc(OCCO)c1)C(C)C	-0.143
C[C@H]1C2[C@H](Cc3ccccc3)NC(=O)[C@]23C(=O)N[C@@H](Cc2ccccc2)C(=O)N2CCC[C@H]2C(=O)NC/C=C/CC/C=C/C3[C@@H]2O[C@]12C (some centres undefined)	-0.0947
O=C(c1ccccc1)N1Cc2ccccc2C[C@@]2(N=C(c3ccc(OCCCO)cc3)O[C@H]2c2ccccc2)C1=O	0.699
COC(=O)[C@H](Cc1ccccc1)N1CC(C)(OC)O[C@@H](Cc2ccccc2)[C@H]1/C=C/C1CC1 (some centres undefined)	-0.359
O=C1O[C@H](c2ccccc2)[C@H](c2ccccc2)N2[C@H]1[C@@H](C(=O)N1CCCCCCC1)[C@]1(C(=O)Nc3ccc(C#CCCO)cc31)[C@H]2c1ccc(O)cc1	1.99
C=CC[C@]1(C(=O)NCC(O)CO)N=C(c2ccc(OCCCO)cc2)O[C@H]1c1ccccc1CN=[N+]=[N-] (some centres undefined)	-2.08
O=C1OC[C@@H](c2ccccc2)n2cc(/C=C/c3ccccc3)cc21	-0.609
C#CCN(C(=O)OC(C)(C)C)[C@H](CO)c1ccccc1	0.258
O=C1NC(=O)C2C1C=CC(C(O)c1ccc(F)cc1)N2Nc1ccc(Cl)cc1Cl (centres undefined)	-0.416

###

Target: Torsin-1A (Homo sapiens)
Assay: small-molecule binders of mutant TOR1A in lysate, primary screen, cell lysate, small-molecule microarray, COS7 lysate, 635/667 nm fluorescence (AID 1150);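 also: score pools 667 nm emission and signal to noise measuring lysate protein binding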
Details: COS7 hTOR1A mutant lysate, 635 nm fluorescence, higher = more signal

molecule	composite z-score
CC[C@@H](O[Si](C#C[Si](C(C)C)(C(C)C)C(C)C)(C(C)C)C(C)C)c1cn(Cc2cccc(Cl)c2)nn1	0.227
COC(=O)C(CC#Cc1ccc2c(c1)[C@]1(C(=O)N2)[C@H](C(=O)N2CCCCCCC2)[C@H]2C(=O)O[C@H](c3ccccc3)[C@H](c3ccccc3)N2[C@@H]1c1ccc(OCCO)cc1)C(=O)OC	3.65
COCCOC(=O)N1C(=O)[C@@]2(c3cc(C#CCNC(N)=O)ccc31)[C@H](c1ccccc1OCCO)N1[C@H](c3ccccc3)[C@H](c3ccccc3)OC(=O)[C@H]1[C@@H]2C(=O)N1CCCCCCC1	0.367
O=C1O[C@H](c2ccccc2)[C@H](c2ccccc2)N2[C@H]1[C@@H](C(=O)Nc1nc3ccccc3s1)[C@]1(C(=O)Nc3ccccc31)[C@H]2c1ccccc1OCCO	1.11
C=CCC(OC(C)=O)[C@@H]1[C@@H](N(Cc2cccc3ccccc23)C(=O)c2ccc(C)cc2)c2cc(OCCCO)ccc2N1C(=O)Cc1ccc2ccccc2c1 (some centres not stated)	-0.564
C=C(COC)C(=O)CC[C@H](OC(C)=O)c1ccccc1OCCO	0.851
CCCN1C(=O)[C@@]2(c3ccc([N+](=O)[O-])cc3)CC(=O)N(C3CCCCC3)[C@@H]2c2ccc(CO)cc21	-0.187
O=C1NC(=O)C2C1C=CC(C(O)C(O)CO)N2Nc1ccccn1 (configuration not stated)	0.344
C=C1C(=O)C=C2CN(C(=O)c3ccccc3)[C@@](Cc3ccc(F)cc3)(C(=O)OC)[C@@H]12	0.73
CCCCC(=C=CC[C@@H](O)c1ccccc1OCCO)C[C@@H](O)c1ccccn1	0.495
[N-]=[N+]=NCc1ccccc1C[C@@]1(C(=O)NCCN2CCOCC2)N=C(c2ccc(OCCCO)cc2)O[C@@H]1c1ccccc1	0.57
COC(=O)C(CC#Cc1ccc2c(c1)[C@]1(C(=O)N2)[C@H](c2ccc(OCCO)cc2)N2[C@H](c3ccccc3)[C@H](c3ccccc3)OC(=O)[C@H]2[C@@H]1C(N)=O)C(=O)OC	-0.127
CCOC(=O)C[C@H]1[C@H](OC(=O)c2ccc(-c3ccccc3)cc2)[C@@H](NC(=O)C2CCCCC2)c2cc(OCCCO)ccc2N1C(=O)Cc1ccc(OC)cc1	0.391
CO[C@H]1O[C@H](CO)[C@@H](OC(=O)Nc2ccccc2)[C@@H]2OC(=O)[C@@H](Cc3ccccc3)C/C=C/C[C@H](Cc3ccccc3)C(=O)O[C@@H]12	1.93
CC(C)[Si](C#Cc1ccccc1)(O[C@H](c1ccccc1)c1cn(Cc2ccccc2)nn1)C(C)C	0.841
COC(=O)[C@@]1(Cc2ccc(F)cc2)[C@H]2c3cc(C(=O)N(C)C)n(Cc4ccsc4Br)c3C[C@H]2CN1C(=O)c1ccccc1	0.39
C[C@H]1C2[C@H](Cc3ccccc3)NC(=O)[C@]23C(=O)N[C@@H](Cc2ccccc2)C(=O)N2CCC[C@H]2C(=O)NC/C=C/CC/C=C/C3[C@@H]2O[C@]12C (some centres not stated)	0.49
COCCOC(=O)N1C(=O)[C@@]2(c3cc(C#CC4=CCCCC4)ccc31)[C@H](c1ccc(O)cc1)N1[C@H](c3ccccc3)[C@H](c3ccccc3)OC(=O)[C@H]1[C@@H]2C(=O)N1CCc2cc(OC)c(OC)cc2C1	0.893
C=CC[C@]1(C(N)=O)N=C(c2ccc(OCCCO)cc2)O[C@H]1c1ccccc1N=[N+]=[N-]	1.62
CCCC1(C(=O)OC)C=C2C(=C(C(C)C)C(=O)C2C)CN1 (configuration not stated)	0.29
CCCCN1CC=CC23O[C@@H]4C=CCCOC(=O)C4[C@H]2C(=O)N(CCO)[C@@H]3C1=O (some centres not stated)	-0.508
COC(=O)C(CC#Cc1ccc2c(c1)[C@]1(C(=O)N2)[C@H](c2ccccc2OCCO)N2[C@H](c3ccccc3)[C@H](c3ccccc3)OC(=O)[C@H]2[C@@H]1C(=O)N1CCN(c2ncccn2)CC1)C(=O)OC	0.498

###

Biological target: Torsin-1A (Homo sapiens) (UniProt O14656)
Sequence (O14656 whole entry, looked up): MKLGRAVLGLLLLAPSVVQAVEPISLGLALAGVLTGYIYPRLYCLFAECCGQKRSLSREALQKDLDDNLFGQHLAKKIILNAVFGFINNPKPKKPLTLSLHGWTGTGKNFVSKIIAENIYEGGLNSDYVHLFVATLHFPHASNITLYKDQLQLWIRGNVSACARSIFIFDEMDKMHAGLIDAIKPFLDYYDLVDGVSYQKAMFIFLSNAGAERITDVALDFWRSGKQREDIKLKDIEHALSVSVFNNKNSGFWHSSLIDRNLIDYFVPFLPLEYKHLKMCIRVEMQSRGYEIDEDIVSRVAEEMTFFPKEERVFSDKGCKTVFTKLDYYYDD
Assay: torsin A binders from cell lysate, primary screen, small-molecule microarray, wild-type, 635/667 nm (AID 1149)
Details: COS7 hTOR1A-WT lysate, 635 nm fluorescence, higher = more signal
The following compounds are shown together with reported composite z-score values.
test readout: composite z-score

> print(dat)
                            molecule.smiles                         system.under.test  observed.measurement
1  COC(=O)[C@]1(Cc2ccccc2CN=[N+]=[N-])N=C(c2ccc(OCCCO)cc2)O[C@@H]1c1ccccc1N=[N+]=[N-]  Torsin-1A (Homo sapiens) (UniProt O14656)               -0.0005
2  O=C1C[C@@](C(=O)NCC(F)(F)F)(c2ccc([N+](=O)[O-])cc2)[C@@H](c2ccc(CO)cc2I)N1CC12CC3CC(CC(C3)C1)C2  Torsin-1A (Homo sapiens) (UniProt O14656)                -0.286
3  COc1c(C)cc(-c2cc3c(c(CCc4ccccc4)n2)[Si](C(C)C)(C(C)C)O[C@H]3c2ccccc2)cc1C  Torsin-1A (Homo sapiens) (UniProt O14656)                 -1.11
4  COc1ccc(CCNC(=O)[C@@]2(C)c3ccccc3C(=O)N(Cc3ccc(OC(F)(F)F)cc3)[C@H]2c2ccc(CO)cc2)cc1  Torsin-1A (Homo sapiens) (UniProt O14656)                  0.43
5  C=CCN1C(=O)[C@@]2(O[C@@H](CCO)[C@H]([Si](C)(C)c3ccc(OC)cc3)[C@H]2C)c2cc(N3CCCCC3=O)ccc21  Torsin-1A (Homo sapiens) (UniProt O14656)                 0.683
